# tgt: recombinant integrin α4β7 (Homo sapiens, UniProt P13612+P26010, DEL724-798)
# Construct: purchased R&D Systems 5397-A3-050
# Sequence (P13612 34-970 limits assumed, stated change not applied): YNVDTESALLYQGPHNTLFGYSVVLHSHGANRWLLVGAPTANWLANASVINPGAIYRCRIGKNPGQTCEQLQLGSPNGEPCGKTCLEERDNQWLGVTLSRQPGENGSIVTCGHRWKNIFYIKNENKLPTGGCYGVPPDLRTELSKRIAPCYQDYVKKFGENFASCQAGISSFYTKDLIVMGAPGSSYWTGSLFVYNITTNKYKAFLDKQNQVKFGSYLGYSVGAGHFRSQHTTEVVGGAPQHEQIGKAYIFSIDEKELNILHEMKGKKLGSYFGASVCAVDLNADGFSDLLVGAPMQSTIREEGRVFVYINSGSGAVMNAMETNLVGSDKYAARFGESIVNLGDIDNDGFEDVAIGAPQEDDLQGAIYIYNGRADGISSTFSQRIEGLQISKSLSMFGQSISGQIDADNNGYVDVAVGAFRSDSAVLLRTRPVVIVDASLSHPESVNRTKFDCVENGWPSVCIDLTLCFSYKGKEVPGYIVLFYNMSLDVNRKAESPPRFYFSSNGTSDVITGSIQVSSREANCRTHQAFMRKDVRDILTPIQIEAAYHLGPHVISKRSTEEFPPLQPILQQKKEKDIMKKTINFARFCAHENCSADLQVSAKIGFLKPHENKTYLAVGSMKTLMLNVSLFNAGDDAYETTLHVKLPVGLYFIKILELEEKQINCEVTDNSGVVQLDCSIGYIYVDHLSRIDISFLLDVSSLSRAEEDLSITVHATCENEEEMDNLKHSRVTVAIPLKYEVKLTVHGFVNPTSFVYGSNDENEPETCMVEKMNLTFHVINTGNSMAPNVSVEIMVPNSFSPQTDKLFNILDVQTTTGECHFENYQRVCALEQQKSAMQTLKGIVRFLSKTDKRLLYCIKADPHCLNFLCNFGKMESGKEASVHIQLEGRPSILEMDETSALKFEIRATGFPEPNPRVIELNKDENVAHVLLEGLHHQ
# Sequence (P26010 20-723 limits assumed, stated change not applied): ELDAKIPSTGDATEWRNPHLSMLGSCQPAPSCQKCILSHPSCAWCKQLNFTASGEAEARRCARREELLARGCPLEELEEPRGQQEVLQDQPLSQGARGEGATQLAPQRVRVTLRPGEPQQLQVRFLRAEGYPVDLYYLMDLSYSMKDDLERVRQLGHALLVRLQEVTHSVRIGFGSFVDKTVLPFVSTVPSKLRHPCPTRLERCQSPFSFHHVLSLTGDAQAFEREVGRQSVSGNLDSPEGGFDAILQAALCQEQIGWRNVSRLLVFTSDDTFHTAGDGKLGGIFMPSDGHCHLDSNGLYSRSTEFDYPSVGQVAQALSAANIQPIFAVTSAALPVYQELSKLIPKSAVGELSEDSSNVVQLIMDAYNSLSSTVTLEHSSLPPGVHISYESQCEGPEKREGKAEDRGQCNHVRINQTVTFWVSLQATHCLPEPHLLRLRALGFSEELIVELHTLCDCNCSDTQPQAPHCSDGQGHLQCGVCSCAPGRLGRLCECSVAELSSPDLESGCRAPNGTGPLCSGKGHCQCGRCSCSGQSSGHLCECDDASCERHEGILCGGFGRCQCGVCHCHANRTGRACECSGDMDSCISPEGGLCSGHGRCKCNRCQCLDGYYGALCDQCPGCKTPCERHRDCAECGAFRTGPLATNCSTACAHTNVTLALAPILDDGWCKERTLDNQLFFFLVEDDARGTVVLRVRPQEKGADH
# method.description: Integrin α4β7—MAdCAM-1 ELISA competition assay
# Type: binding
# experimental.parameters: read-out: ELISA a4b7 Assay IC50
pIC50: −log10 of the molar value.
Classify as follows. Reported pIC50 greater than or equal to 7: class 1. Reported pIC50 below: class 0.

For orientation, consider the following solved cases.
* CC(C)C[C@@H]1NC(=O)C[C@H](CCCCN)NC(=O)[C@H](Cc2ccc(I)cc2)NC(=O)[C@@H]2CCCN2[C@H](C(=O)NC(C)(C)C)[C@H](C)NC(=O)[C@H]([C@@H](C)O)NC(=O)[C@H](CC(=O)O)NC1=O | class 0
* CC(C)C[C@@H]1NC(=O)C[C@H](CCCCN)NC(=O)[C@H](Cc2ccccc2-c2ncccc2Br)NC(=O)[C@@H]2CCCN2[C@H](C(=O)NC(C)(C)C)[C@H](C)NC(=O)[C@H]([C@@H](C)O)NC(=O)[C@H](CC(=O)O)NC1=O | class 1
* COc1cccc(-c2ccccc2C[C@@H]2NC(=O)[C@@H]3CCCN3[C@H](C(=O)NC(C)(C)C)[C@H](C)NC(=O)[C@H]([C@@H](C)O)NC(=O)[C@H](CC(=O)O)NC(=O)[C@H](CC(C)C)NC(=O)[C@H]3CCCCN3C2=O)c1 | class 1

Dear colleague, could you confirm whether `COc1ccccc1-c1ccccc1C[C@@H]1NC(=O)[C@@H]2CCCN2[C@H](C(=O)NC(C)(C)C)[C@H](C)NC(=O)[C@H]([C@@H](C)O)NC(=O)[C@H](CC(=O)O)NC(=O)[C@H](CC(C)C)NC(=O)[C@H]2CCCCN2C1=O` has pIC50 at or above 7? class 1

Dear colleague, could you confirm whether `CC(C)C[C@@H]1NC(=O)c2cc(cc(-c3ccncc3)c2)CNC(=O)[C@@H]2CCCN2[C@H](C(=O)NC(C)(C)C)[C@H](C)NC(=O)[C@H]([C@@H](C)O)NC(=O)[C@H](CC(=O)O)NC1=O` has pIC50 at or above 7? class 1

###

# tgt: recombinant integrin α4β7 (Homo sapiens, UniProt P13612+P26010, DEL724-798)
# Construct: purchased R&D Systems 5397-A3-050
# method.description: Integrin α4β7—MAdCAM-1 ELISA competition assay
# Type: binding
# experimental.parameters: ratio of a4b1 to a4b7 ELISA IC50
Consider the following compounds; for each one, report its ELISA Assay Ratio b1/b7.
Answers are plain numbers.

Could I get ELISA Assay Ratio b1/b7 for every one of these entries?
1. Cc1cccc(C)c1-c1ccccc1C[C@@H]1NC(=O)[C@@H]2CCCN2[C@H](C(=O)NC(C)(C)C)[C@H](C)NC(=O)[C@H]([C@@H](C)O)NC(=O)[C@H](CC(=O)O)NC(=O)[C@H](CC(C)C)NC(=O)C[C@H](CCCCN)NC1=O
2. CC(C)C[C@@H]1NC(=O)[C@@H](Cc2ccncc2)NC(=O)[C@@H]2CCCN2[C@H](C(=O)NC(C)(C)C)[C@H](C)NC(=O)[C@H]([C@@H](C)O)NC(=O)[C@H](CC(=O)O)NC1=O
3. CC(C)C[C@@H]1NC(=O)[C@H](Cc2ccc(-c3ccccc3)cc2)NC(=O)[C@@H]2C[C@@H](F)CN2[C@H](C(=O)NC(C)(C)C)[C@H](C)NC(=O)[C@H]([C@@H](C)O)NC(=O)[C@H](CC(=O)O)NC1=O
4. CC(C)C[C@@H]1NC(=O)C[C@H](CCCCN)NC(=O)[C@H](Cc2ccc(I)cc2)NC(=O)[C@@H]2CCCN2[C@H](C(=O)NC(C)(C)C)[C@H](C)NC(=O)[C@H]([C@@H](C)O)NC(=O)[C@H](CC(=O)O)NC1=O
5. CC(C)C[C@@H]1NC(=O)C[C@H](CCCCN)NC[C@H](Cc2ccc(CN)cc2)NC(=O)[C@@H]2CCCN2[C@H](C(=O)NC(C)(C)C)[C@H](C)NC(=O)[C@H]([C@@H](C)O)NC(=O)[C@H](CC(=O)O)NC1=O
6. CC(C)C[C@@H]1NC(=O)CN(C)C(=O)[C@H](Cc2ccc(-c3ccccc3)cc2)NC(=O)[C@@H]2CCCN2[C@H](C(=O)NC(C)(C)C)[C@H](C)NC(=O)[C@H]([C@@H](C)O)NC(=O)[C@H](CC(=O)O)NC1=O

58.1
4.3
2.4
58.1
16.5
8.4

###

# tgt: recombinant integrin α4β7 (Homo sapiens, UniProt P13612+P26010, DEL724-798)
# Construct: purchased R&D Systems 5397-A3-050
# method.description: Integrin α4β7—MAdCAM-1 ELISA competition assay
# Format: binding
# experimental.parameters: read-out: ELISA a4b7 Assay IC50
recorded.endpoint: IC50 (nM)
Give bare numbers, in nM.

// worked examples, IC50 included
* CC(C)C[C@@H]1NC(=O)[C@H](Cc2cccc3ccccc23)NC(=O)[C@@H]2CCCN2[C@H](C(=O)NC(C)(C)C)[C@H](C)NC(=O)[C@H]([C@@H](C)O)NC(=O)[C@H](CC(=O)O)NC1=O [Compound 9] | 61
* CC(C)C[C@@H]1NC(=O)[C@H](Cc2ccc(-c3ccccc3)cc2)NC(=O)[C@@H]2C[C@@H](F)CN2[C@H](C(=O)NC(C)(C)C)[C@H](C)NC(=O)[C@H]([C@@H](C)O)NC(=O)[C@H](CC(=O)O)NC1=O [Compound 46] | 106
* CC(C)C[C@@H]1NC(=O)CN(C)C(=O)[C@H](Cc2ccc(I)cc2)NC(=O)[C@@H]2CCCN2[C@H](C(=O)NC(C)(C)C)[C@H](C)NC(=O)[C@H]([C@@H](C)O)NC(=O)[C@H](CC(=O)O)NC1=O [Compound 107] | 150

Shifting focus to the molecule that follows.
Which measured IC50 value corresponds to CC(C)C[C@@H]1NC(=O)C[C@H]2CCCN2C(=O)[C@H](Cc2ccc(CN)cc2)NC(=O)[C@@H]2CCCN2[C@H](C(=O)NC(C)(C)C)[C@H](C)NC(=O)[C@H]([C@@H](C)O)NC(=O)[C@H](CC(=O)O)NC1=O [Compound 230] ? 120

###

Consider the following compounds; for each one, report its IC50.
# tgt: recombinant integrin α4β7 (Homo sapiens, UniProt P13612+P26010, DEL724-798)
# Construct: purchased R&D Systems 5397-A3-050
# method.description: Integrin α4β7—MAdCAM-1 ELISA competition assay
# Assay type: binding
# experimental.parameters: read-out: ELISA a4b7 Assay IC50
One number for each entry, in nM.

Could I get IC50 for every one of these entries?
1. CC[C@H](C)[C@@H]1NC(=O)[C@H](CC(=O)O)NC(=O)[C@H](CC(C)C)NC(=O)[C@H](Cc2c[nH]c3ccccc23)NC(=O)[C@@H]2CCCN2[C@H](C(=O)NC(C)(C)C)[C@H](C)NC1=O [Compound 8]
2. CC(C)C[C@@H]1NC(=O)[C@H]2CCCCN2C(=O)[C@@H](Cc2cccc(-c3cccc4ncccc34)c2)NC(=O)[C@@H]2CCCN2[C@H](C(=O)NC(C)(C)C)[C@H](C)NC(=O)[C@H]([C@@H](C)O)NC(=O)[C@H](CC(=O)O)NC1=O [Compound 192]
3. CC(C)C[C@@H]1NC(=O)[C@@H](CCCNC(=N)N)N(C)C(=O)[C@H](Cc2ccc(O)cc2)NC(=O)[C@@H]2CCCN2[C@H](C(=O)NC(C)(C)C)[C@H](C)NC(=O)[C@H]([C@@H](C)O)NC(=O)[C@H](CC(=O)O)NC1=O [Compound 157]
4. CC(C)C[C@@H]1NC(=O)[C@H](Cc2csc(-c3ccncc3)n2)NC(=O)[C@@H]2CCCN2[C@H](C(=O)NC(C)(C)C)[C@H](C)NC(=O)[C@H]([C@@H](C)O)NC(=O)[C@H](CC(=O)O)NC1=O [Compound 97]
5. CC(C)C[C@@H]1NC(=O)C[C@H](CCCCN)NC(=O)[C@H](Cc2ccc(-c3ccccc3)cc2)NC(=O)[C@@H]2CCCN2[C@H](C(=O)NC(C)(C)C)[C@H](C)NC(=O)[C@H]([C@@H](C)O)NC(=O)[C@H](CC(=O)O)NC1=O [Compound 204]

103
118
67
124
63

###

# tgt: recombinant integrin α4β7 (Homo sapiens, UniProt P13612+P26010, DEL724-798)
# Construct: purchased R&D Systems 5397-A3-050
# method.description: Integrin α4β7—MAdCAM-1 ELISA competition assay
# Type: binding
# experimental.parameters: ratio of a4b1 to a4b7 ELISA IC50
Consider the following compounds; for each one, report its ELISA Assay Ratio b1/b7.
Give bare numbers.

Could I get ELISA Assay Ratio b1/b7 for every one of these entries?
1. CC(C)C[C@@H]1NC(=O)[C@H](Cc2cccc3ccccc23)NC(=O)[C@@H]2CCCN2[C@H](C(=O)NC(C)(C)C)[C@H](C)NC(=O)[C@H]([C@@H](C)O)NC(=O)[C@H](CC(=O)O)NC1=O [Compound 9]
2. CC[C@@H](C)[C@@H]1NC(=O)[C@H](CC(=O)O)NC(=O)[C@H](CC(C)C)NC(=O)C[C@H](CCCCN)NC(=O)[C@H](Cc2ccc(CN)cc2)NC(=O)[C@@H]2CCCN2[C@H](C(=O)NC(C)(C)C)[C@H](C)NC1=O [Compound 285]
3. CC(C)C[C@@H]1NC(=O)[C@H](Cc2ccccc2)NC(=O)[C@@H]2C[C@@H](F)CN2[C@H](C(=O)NC(C)(C)C)[C@H](C)NC(=O)[C@H]([C@@H](C)O)NC(=O)[C@H](CC(=O)O)NC1=O [Compound 45]

[1.7, 6.2, 3.2]
